src = patent US6683103B2

Target: human ETA receptors (Homo sapiens, UniProt P25101)
Construct: endogenous in cells; host or cells: TE 671 cells (ATCC HTB 139)
Sequence (P25101 21-427): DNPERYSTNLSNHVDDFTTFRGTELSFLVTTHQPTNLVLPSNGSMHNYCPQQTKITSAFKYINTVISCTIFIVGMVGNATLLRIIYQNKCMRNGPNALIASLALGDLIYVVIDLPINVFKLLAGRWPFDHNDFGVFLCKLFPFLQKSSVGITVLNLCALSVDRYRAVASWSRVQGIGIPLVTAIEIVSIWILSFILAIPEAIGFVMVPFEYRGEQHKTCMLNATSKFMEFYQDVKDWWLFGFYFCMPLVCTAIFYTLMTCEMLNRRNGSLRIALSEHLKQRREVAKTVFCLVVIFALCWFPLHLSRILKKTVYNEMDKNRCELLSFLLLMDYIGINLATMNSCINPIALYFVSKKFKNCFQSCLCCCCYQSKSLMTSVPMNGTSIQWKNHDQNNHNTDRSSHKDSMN
Test: Binding Test #1: inhibition of 125I-ET-1 binding to ETA receptors (TE 671 cell membranes)
Conditions: Table 3; † incubation at 24° C.; read-out: ETA
Assay Endpoint: pIC50
In plain terms, pIC50 is the concentration in mol/L turned into minus its base-10 logarithm.

Substance Smiles: Cc1cc(C)c(NC(=O)c2sccc2S(=O)(=O)Nc2onc(C)c2Cl)c(C(=O)C2CC2)c1
Assay Endpoint: pIC50
Reported Measurement: 9.44

Substance Smiles: CCC(=O)c1cc(C)cc(C)c1NC(=O)c1sccc1S(=O)(=O)Nc1onc(C)c1Cl
Assay Endpoint: pIC50
Reported Measurement: 9.21

Substance Smiles: Cc1cc(C)c(OC(N)=O)c(C)c1NC(=O)c1sccc1S(=O)(=O)Nc1onc(C)c1Cl
Assay Endpoint: pIC50
Reported Measurement: 8.26

Substance Smiles: Cc1cc(C)c(NC(=O)c2sccc2S(=O)(=O)Nc2onc(C)c2Cl)c(C(=O)C(C)C)c1
Assay Endpoint: pIC50
Reported Measurement: 8.95

Substance Smiles: Cc1cc(C)c(NC(=O)c2sccc2S(=O)(=O)Nc2onc(C)c2Cl)c(C(=O)c2ccccc2)c1
Assay Endpoint: pIC50
Reported Measurement: 8.37

Briefly, pIC50 measured for `Cc1cc(C)c(NC(=O)c2sccc2S(=O)(=O)Nc2onc(C)c2Cl)c(C(=O)C2CCCCC2)c1` : 7.83

Briefly, pIC50 measured for `COC(=O)Oc1c(C)cc(C)c(NC(=O)c2sccc2S(=O)(=O)Nc2onc(C)c2Cl)c1C` : 9.12

Briefly, pIC50 measured for `CC(=O)c1cc(C)cc(C)c1NC(=O)c1sc(C)cc1S(=O)(=O)Nc1onc(C)c1Cl` : 8.53

Briefly, pIC50 measured for `CC(=O)c1cc(C)cc(C)c1NC(=O)c1sccc1S(=O)(=O)Nc1onc(C)c1Cl` : 9.26
